measuredOn: human OAT2 (organic anion transporter 2) (Homo sapiens, UniProt Q9Y694)
Construct: full-length human OAT2 stably transfected in HEK293 cells (PortaCellTec Biosciences)
Sequence (Q9Y694 whole entry): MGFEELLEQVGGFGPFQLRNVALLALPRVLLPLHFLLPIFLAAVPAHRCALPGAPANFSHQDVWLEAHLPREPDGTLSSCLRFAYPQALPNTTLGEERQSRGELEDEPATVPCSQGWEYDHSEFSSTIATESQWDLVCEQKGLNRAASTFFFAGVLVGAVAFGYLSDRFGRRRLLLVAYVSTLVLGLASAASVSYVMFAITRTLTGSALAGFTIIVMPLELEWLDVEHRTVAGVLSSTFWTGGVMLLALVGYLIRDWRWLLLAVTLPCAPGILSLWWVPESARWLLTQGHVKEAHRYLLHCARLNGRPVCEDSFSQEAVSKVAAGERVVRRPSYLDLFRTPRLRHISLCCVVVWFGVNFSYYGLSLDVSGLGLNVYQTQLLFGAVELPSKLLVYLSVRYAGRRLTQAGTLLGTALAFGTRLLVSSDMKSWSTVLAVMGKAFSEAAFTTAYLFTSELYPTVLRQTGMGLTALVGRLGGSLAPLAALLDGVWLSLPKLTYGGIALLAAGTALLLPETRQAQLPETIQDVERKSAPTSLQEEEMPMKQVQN
testProtocol: inhibition of [3H]cGMP uptake in OAT2-HEK293 cells
pIC50: −log10 of the molar value.
reportedMetric: pIC50

* CCCCNc1cc(C(=O)O)cc(S(N)(=O)=O)c1Oc1ccccc1 [bumetanide] | 3.88
